Tested on: ACHN
ASSAY NAME: NCI tumour cell line growth inhibition, 48 h
Activity calls are given as the source filed them. Rule as the data show it: active = GI50 up to about 1.1 µM and inactive = higher. Where a SMILES comes first, the peptide text is derived from it. The star is where a group is joined. Cbz = O=C(OCc1ccccc1)*; Boc = CC(C)(C)OC(=O)*; tBu = CC(C)(C)*
Known GI50 of a selection of molecules
QUANTITY MEASURED: GI50

CCCCCC/C=C1\CCC(CN2CCCC2)C1=O (stereo not drawn)	18.3 µM (inactive)
O/N=C1/CCCCC1NO (stereo not drawn)	> 100 µM (inactive)
CC(NC1CCCC[C@H]1O)c1ccccc1 (stereo partly drawn)	> 100 µM (inactive)
CC(OC(C)(C)C)C(NC(=O)C(CCCCNC(=O)OC(C)(C)C)NC(=O)C(Cc1c[nH]c2ccccc12)NC(=O)C(Cc1ccccc1)NC(=O)OCc1ccccc1)C(=O)NC(Cc1ccccc1)C(=O)O (stereo not drawn) (Cbz-FWK(Boc)T(tBu)F-OH; configuration not given here)	69.3 µM (inactive)
Cn1c(=O)sc2cc(C(=S)N3CCN(c4ccccc4)CC3)ccc21	70.3 µM (inactive)
CCCCCCCCCCCCCCCC(=O)OCC1OC(n2cc(F)c(=O)[nH]c2=O)C(N)C(O)C1O (stereo not drawn)	18.8 µM (inactive)
CCN(CC)c1ccc2cc(-c3nc(O)c4ccccc4n3)c(=N)oc2c1	> 100 µM (inactive)
CC(C)Cn1cnc2c(Cl)nc3ccccc3c21	30.2 µM (inactive)
O=C(CC1C=Cc2ccccc2N1C(=O)c1ccccc1)c1ccccc1 (stereo not drawn)	35.6 µM (inactive)
Cc1c(C#N)c2nnn(-c3cccc(Cl)c3)c(=O)n2c1-c1ccccc1	6.4 µM (inactive)
CC(C)COC1Sc2ccccc2S1	15.7 µM (inactive)
CCOC(=O)[C@H]1Nc2ccc(Cl)cc2[C@H]2c3ccccc3O[C@H]21	> 100 µM (inactive)
CC(=O)Nc1ccc2nncnc2c1	> 100 µM (inactive)
c1ccc2c(c1)NC1(N3CCCCC3)CCCCC21 (stereo not drawn)	47.1 µM (inactive)
Oc1c2c(nc3cc4c(cc13)OCO4)-c1ccccc1CC2	> 100 µM (inactive)
CC(NC(=O)C(N)CC(=O)O)C(=O)OC12CC3CC(CC(C3)C1)C2 (stereo not drawn)	> 100 µM (inactive)
N/N=C1\c2ccccc2C2/C(=N\N)c3ccccc3C12 (stereo not drawn)	> 100 µM (inactive)
O=C(O)c1ccc(SSc2ccc(C(=O)O)cn2)nc1	> 100 µM (inactive)
CC1=NNC(=O)C1C(CC(=O)c1c[nH]c2ccccc12)C(=O)O (stereo not drawn)	> 100 µM (inactive)
COc1ccc(N2C(=O)C(=O)C3(CCCCC3)C2=O)c(OC)c1OC	> 100 µM (inactive)
Nc1cc(N2CCCC2)nc(=O)n1Cc1ccccc1	> 100 µM (inactive)
CCOC(=O)c1ccc(Nc2nc3cc(C(F)(F)F)ccc3nc2C(=O)OCC)cc1	42 µM (inactive)
OCC(Cn1cncn1)(c1ccc(F)cc1F)n1cncn1 (stereo not drawn)	> 100 µM (inactive)

----------
Test system: HOP-92
ASSAY NAME: NCI tumour cell line growth inhibition, 48 h
Calls of active or inactive are those of the source. No stated cut-off is given here; in the data, active = GI50 up to about 1.1 µM and inactive = higher.
QUANTITY MEASURED: GI50

CC(O)C(C(=O)O)N(CC1(O)OCC(O)C(O)C1O)N=O (stereo not given)	> 100 µM (inactive)
COc1cccc([C@H]2CC(=O)c3cc4c(cc3N2)OCO4)c1	19.1 µM (inactive)
Nc1cccc2nnccc12	> 100 µM (inactive)
O=c1cc(NNc2cccc(F)c2)[nH]c(=S)[nH]1	19.2 µM (inactive)
c1ccc2c(c1)NC1(N3CCCCC3)CCCCC21 (stereo not given)	20 µM (inactive)
O=C1[C@H]2ON(c3ccccc3)C(c3ccccc3Cl)[C@H]2C(=O)N1c1ccc(Cc2ccc(N3C(=O)[C@@H]4ON(c5ccccc5)C(c5ccccc5Cl)[C@@H]4C3=O)cc2)cc1 (stereo not given in full)	71 µM (inactive)
COc1ccc(NC(C)c2ccncc2)cc1 (stereo not given)	> 100 µM (inactive)
CCC(=O)C(CCN1CCC2(CCCc3ccccc32)CC1)(c1ccccc1)c1ccccc1	1.47 µM (inactive)
CCOC(=O)c1c(N)sc2c1C(C(=O)OCC)CCCC2 (stereo not given)	75.5 µM (inactive)
O=C(c1ccccc1)c1sc2c(=O)c(C(=O)c3ccccc3)c(C(=O)c3ccccc3)sc2c(=O)c1C(=O)c1ccccc1	37.2 µM (inactive)

----------
Test system: OVCAR-5
ASSAY NAME: NCI tumour cell line growth inhibition, 48 h
The source made the active and inactive calls. Rule as the data show it: active = GI50 up to about 1.1 µM and inactive = higher.
QUANTITY MEASURED: GI50

O=c1[nH]c2ccc(CC(=S)N3CCN(c4ccccc4)CC3)cc2o1	> 100 µM (inactive)
CCOC(=O)c1nc2ccc(C(F)(F)F)cc2nc1Oc1ccc(OC)cc1	> 100 µM (inactive)
COc1cc(-c2nccc3cc(OC)c(OC)cc23)ccc1O	34.9 µM (inactive)
N#Cc1ccc(-c2ccc(Cl)cc2)n(C2OC(CO)C(O)C(O)C2O)c1=S (stereo not given)	> 100 µM (inactive)
O=C1OC(=O)C(=C\c2ccc3c(c2)OCO3)/C1=C/c1ccc2c(c1)OCO2	> 100 µM (inactive)

----------
System: UO-31
ASSAY NAME: NCI tumour cell line growth inhibition, 48 h
Activity calls are given as the source filed them. No stated cut-off is given here; in the data, active = GI50 up to about 1.1 µM and inactive = higher.
Property: GI50; scope: individual compounds
QUANTITY MEASURED: GI50

CC(=O)Nc1ccc2nncnc2c1	> 100 µM (inactive)
O=C1N(c2ccccc2)N=C2c3ccncc3C3=NN(c4ccccc4)C(=O)C123 (centres undefined)	2.35 µM (inactive)
NNC(N)Nc1ccccc1 (centres undefined)	> 100 µM (inactive)
C/C(=N\Nc1ccccc1)c1sc(-c2nc(C)c(/C(C)=N/Nc3ccccc3)s2)nc1C	8.83 µM (inactive)
O=S(=O)(O)c1ccc(/N=N\c2ccc(/N=N\c3ccc(/C=C/c4ccc(/N=[N+](/[O-])c5ccc(/C=C/c6ccc(/N=N/c7ccc(/N=N\c8ccc(S(=O)(=O)O)cc8)cc7)cc6S(=O)(=O)O)c(S(=O)(=O)O)c5)cc4S(=O)(=O)O)c(S(=O)(=O)O)c3)cc2)cc1	> 100 µM (inactive)
O=C(O)C1=C(CO)Oc2cc3c(cc2C1c1ccc2c(c1)OCO2)OCO3 (centres undefined)	> 100 µM (inactive)
C=C1CC(O)C2C(=C)C(=O)OC2C2C(C)C(=O)CC12 (centres undefined)	14.7 µM (inactive)
Cc1ccc(NC(=O)c2cc3cc(/N=N/c4ccccc4C(=O)O)ccc3oc2=O)cc1	30.1 µM (inactive)
C=Cc1nc2c(Cl)ncnc2n1Cc1ccccc1	2.51 µM (inactive)

----------
Test system: MDA-MB-231
ASSAY NAME: NCI tumour cell line growth inhibition, 48 h
The source made the active and inactive calls. No stated cut-off is given here; in the data, active = GI50 up to about 1.1 µM and inactive = higher. *1 amine or outer side, *2 acyl side, *3 side chain or, on linkers, in order; H or OH if unused. Where a SMILES comes first, the peptide text is derived from it. Bridges are numbered along the chain shown (N, C = ends). [ ]: non-standard residue; d: D form. The star is where a group is joined. ξ: configuration not given here. ξOrn(4,5-diOH) = O=C(C(CC(O)C(O)N[*:3])N[*:1])[*:2]; ξhTyr(βξ-OH,γξ-OH) = NC(C(=O)O)C(O)C(O)c1ccc(O)cc1; ξPro(3ξ-OH,4ξ-Me) = CC1CNC(C(=O)O)C1O; X55 = CCCCC/C=C/C/C=C\CCCCCCCC(=O)*; Hyp = O=C(O)[CH]1C[CH](O)CN1
Below, each entry is listed with its recorded GI50.
QUANTITY MEASURED: GI50

COc1ccc(NC(C)c2ccncc2)cc1 (stereo not given)	> 100 µM (inactive)
CCCCC/C=C/C/C=C\CCCCCCCC(=O)NC1CC(O)C(O)NC(=O)C2C(O)C(C)CN2C(=O)C(C(C)O)NC(=O)C(C(O)C(O)c2ccc(O)cc2)NC(=O)C2CC(O)CN2C(=O)C(C(C)O)NC1=O (stereo not drawn) (X55-[ξOrn(4,5-diOH)]T[Hyp][ξhTyr(βξ-OH,γξ-OH)]T[ξPro(3ξ-OH,4ξ-Me)]; lactam 1-C; configuration not given here)	> 100 µM (inactive)
COC(=O)c1c2c(cc3c1CC1(C3)Cc3cc4c(c(C(=O)OC)c3C1)CCCC4)CCCC2	> 100 µM (inactive)
C=C(C)[C@@H]1CC[C@]2(C(=O)OC3OC(COC4OC(CO)C(OC5OC(C)C(O)C(O)C5O)C(O)C4O)C(O)C(O)C3O)CC[C@]3(C)[C@H](CC[C@@H]4[C@@]5(C)CC[C@H](O)[C@@](C)(CO)[C@@H]5CC[C@]43C)[C@@H]12 (stereo not given in full)	3.56 µM (inactive)
O=C1Nc2ccc(Br)cc2/C1=N/c1ccc2c(c1)OCO2	19 µM (inactive)
O=C1CCCCC/C1=C\c1ccc(F)cc1	> 100 µM (inactive)
COc1ccc(C(=O)/C=C/c2ccc(O)c(O)c2F)c(OC)c1	9.82 µM (inactive)
O=S(=O)(O)c1cc(O)c2c(/N=C\c3ccccc3O)cc(S(=O)(=O)O)cc2c1	> 100 µM (inactive)
O=C(NNC(=O)c1ccco1)c1ccco1	> 100 µM (inactive)
Nc1ncnc2c1ccn2CC=C(CO)CO	> 100 µM (inactive)
